- system under test: Carbonic anhydrase 2 (Homo sapiens) (UniProt P00918)
- test method notes: CAII small-molecule binders, profiling panel, biochemical, small-molecule microarray, Alexa647-labelled CAII (AID 1122)
- applied conditions: CAII-A647 binding fluorescence, higher = more signal
Quick reference: composite z-score of the listed items.
Response field accepts a number only; no unit should be typed.

# annotated cases, reported composite z-score shown
{"columns": ["compound", "system under test", "composite z-score"],
 "data": [
  ["COCCCNC(=O)[C@@H]1c2ccccc2C(=O)N(C2CCCCC2)[C@H]1c1ccc(CO)cc1", "Carbonic anhydrase 2 (Homo sapiens) (UniProt P00918)", 0.471],
  ["CCCCNC(=O)c1ccc(C#C[Si](C)(C)C)c(OC(C)=O)c1", "Carbonic anhydrase 2 (Homo sapiens) (UniProt P00918)", -0.14],
  ["CC(C)C[C@@H]1NC(=O)[C@@H]2C[C@H](C(=O)O)[C@H](c3ccc(O)cc3)N2C1=O", "Carbonic anhydrase 2 (Homo sapiens) (UniProt P00918)", 0.558],
  ["C=C(CCCC)C(=O)CC[C@H](OC(=O)c1cccnc1)c1ccc(CO)o1", "Carbonic anhydrase 2 (Homo sapiens) (UniProt P00918)", 0.555],
  ["CC(=O)c1ccc(C(O)C2C=CC3C(=O)NC(=O)C3N2Nc2ccc(Cl)cc2Cl)cc1 (centres undefined)", "Carbonic anhydrase 2 (Homo sapiens) (UniProt P00918)", 0.759],
  ["CC(=O)c1ccc(C(O)C2C=CC3C(=O)N(C)C(=O)C3N2NC(=O)OC(C)(C)C)cc1 (centres undefined)", "Carbonic anhydrase 2 (Homo sapiens) (UniProt P00918)", 0.885],
  ["COC(=O)C1(CC(C)C)C=C2C(=C(C(C)C)C(=O)C2C)CN1 (centres undefined)", "Carbonic anhydrase 2 (Homo sapiens) (UniProt P00918)", 0.539],
  ["CO[C@H]1O[C@H](CO)[C@@H](OC(=O)Nc2ccc(C(F)(F)F)cc2)[C@H](OC(=O)Nc2ccccc2-c2ccccc2)[C@@H]1OC(=O)Nc1ccccc1-c1ccccc1", "Carbonic anhydrase 2 (Homo sapiens) (UniProt P00918)", 0.647]
]}

(Q) Need composite z-score of `CN(C)CCCCNC(=O)[C@H]1C[C@H]2C(=O)NCC(=O)N2[C@H]1c1cccc(OCCO)c1` , thanks.
(A) 0.655

(Q) Need composite z-score of `CC(C)C[C@@H]1NC(=O)[C@H]2C[C@@H](C(=O)NCCCCCNC(=O)CS)[C@@H](c3ccc(O)cc3)N2C1=O` , thanks.
(A) 0.414

(Q) Need composite z-score of `CCC[C@@H]1C=C(C(=O)OCC)[C@H](c2ccccc2)N1S(=O)(=O)c1ccc(C)cc1` , thanks.
(A) 0.214

(Q) Need composite z-score of `C=C(C(=O)CC[C@@H](OC(C)=O)c1cccc(OCCO)c1)C(C)C` , thanks.
(A) 0.862

(Q) Need composite z-score of `COC(=O)[C@@]1(Cc2ccc(F)cc2)[C@H]2c3cc(C(=O)N(C)C)n(CCO)c3C[C@H]2CN1C(=O)c1ccccc1` , thanks.
(A) 0.861

(Q) Need composite z-score of `COCCOC(=O)N1C(=O)[C@@]2(c3cc(C#CC4(O)CCCCCC4)ccc31)[C@H](c1ccc(OCCO)cc1)N1[C@H](c3ccccc3)[C@H](c3ccccc3)OC(=O)[C@H]1[C@@H]2C(N)=O` , thanks.
(A) 0.3

(Q) Need composite z-score of `Cc1ccc(S[C@]2(C(=O)NC3CC3)CC(=O)N(Cc3cc(C(F)(F)F)cc(C(F)(F)F)c3)[C@@H]2c2ccc(CO)cc2I)cc1` , thanks.
(A) 0.554

(Q) Need composite z-score of C=CCC(OC(C)=O)[C@@H]1[C@@H](N(Cc2cc3ccccc3o2)C(=O)c2cccc3ccccc23)c2cc(OCCCO)ccc2N1C(=O)c1ccc2ccccc2c1 (some centres undefined) , thanks.
(A) 0.229

(Q) Need composite z-score of `C=CC[C@@]12N=C(c3ccc(OCCCO)cc3)O[C@@H]1c1ccccc1N(Cc1ccccc1)C2=O` , thanks.
(A) 0.463

(Q) Need composite z-score of N#Cc1ccc(C(O)C2C=CC3C(=O)N(c4ccccc4)C(=O)C3N2Nc2ccc([N+](=O)[O-])cc2)cc1 (centres undefined) , thanks.
(A) 0.748

(Q) Need composite z-score of `COC(=O)[C@@]1(CCC(=O)OC(C)(C)C)N=C(c2ccc(OCCCO)cc2)O[C@H]1c1ccccc1CN=[N+]=[N-]` , thanks.
(A) 0.743

(Q) Need composite z-score of `COc1ccc(CCNC(=O)[C@@]2(Sc3ccc(C)cc3)CC(=O)N(Cc3cc(C(F)(F)F)cc(C(F)(F)F)c3)[C@@H]2c2ccc(CO)cc2)cc1` , thanks.
(A) 0.711

(Q) Need composite z-score of `COCCOC(=O)N1C(=O)[C@@]2(c3cc(C#CCC(C(=O)OC)C(=O)OC)ccc31)[C@H](C(N)=O)[C@H]1C(=O)O[C@H](c3ccccc3)[C@H](c3ccccc3)N1[C@@H]2c1ccc(OCCO)cc1` , thanks.
(A) 0.565

(Q) Need composite z-score of `CO[C@H]1O[C@H](CO)[C@@H](OC(=O)Nc2ccccc2)[C@@H]2OC(=O)[C@H](Cc3ccccc3)C/C=C/C[C@@H](Cc3ccccc3)C(=O)O[C@@H]12` , thanks.
(A) 0.559

(Q) Need composite z-score of `CN1C(=O)[C@]2(CCS(=O)(=O)c3ccccc3)N=C(c3ccc(OCCCO)cc3)O[C@@H]2c2ccccc21` , thanks.
(A) 0.531

(Q) Need composite z-score of `C=CCNC(=O)[C@H]1[C@@H]2C(=O)O[C@@H](c3ccccc3)[C@@H](c3ccccc3)N2[C@@H](c2ccccc2OCCO)[C@]12C(=O)N(C(=O)OCCOC)c1ccccc12` , thanks.
(A) 0.567

(Q) Need composite z-score of `CC(C)CNC(=O)[C@@H]1c2ccccc2C(=O)N(Cc2ccccc2Cl)[C@H]1c1ccc(CO)cc1` , thanks.
(A) 0.687

(Q) Need composite z-score of `COCCOC(=O)N1C(=O)[C@@]2(c3cc(C#CCNC(N)=O)ccc31)[C@H](C(=O)NC[C@H](O)c1ccccc1)[C@H]1C(=O)O[C@H](c3ccccc3)[C@H](c3ccccc3)N1[C@@H]2c1ccc(OCCO)cc1` , thanks.
(A) 0.355

(Q) Need composite z-score of `COCCOC(=O)N1C(=O)[C@@]2(c3cc(C#Cc4ccc(OC)cc4)ccc31)[C@H](C(=O)Nc1nc3ccccc3s1)[C@H]1C(=O)O[C@H](c3ccccc3)[C@H](c3ccccc3)N1[C@@H]2c1ccccc1OCCO` , thanks.
(A) 0.547

(Q) Need composite z-score of C=CCC(OC(C)=O)[C@@H]1[C@@H](N(Cc2ccc(-c3ccccc3)cc2)C(=O)c2ccc(C)cc2)c2cc(OCCCO)ccc2N1C(=O)c1ccc2ccccc2c1 (some centres undefined) , thanks.
(A) -0.104

(Q) Need composite z-score of `C=CC[C@@]1(C(=O)O)N=C(c2ccc(OCCCO)cc2)O[C@@H]1c1ccccc1CN=[N+]=[N-]` , thanks.
(A) 0.596
